parameter measured: melting point

Solved cases below.
CN1CCN(Cc2cc(-c3ccc4c(c3)CCO4)nn(Cc3ccc(Cl)cc3)c2=O)CC1 = 149 to 150 °C
CN1CCN(Cc2cc(-c3ccc4occc4c3)nn(Cc3ccc(F)cc3)c2=O)CC1 = 128 to 130 °C

query: Data request, read-out melting point, for "CN1CCN(Cc2cc(-c3ccc4c(c3)CCO4)nn(Cc3ccccc3Cl)c2=O)CC1"
result: 141.4 to 142.1 °C

query: Data request, read-out melting point, for "CN1CCN(Cc2cc(-c3ccc4c(c3)CCO4)nn(Cc3ccc(F)cc3)c2=O)CC1"
result: 179 to 180 °C

query: Data request, read-out melting point, for "NCc1cc(-c2ccc3c(c2)CCO3)nn(Cc2ccccc2Cl)c1=O"
result: 120.1 to 122.8 °C

query: Data request, read-out melting point, for "CN(C)Cc1cc(-c2ccc3c(c2)CCO3)nn(CC2CC2)c1=O"
result: 109 to 110 °C

query: Data request, read-out melting point, for "CN1CCN(Cc2cc(-c3ccc4c(c3)CCO4)nn(CC=Cc3ccc(Cl)cc3)c2=O)CC1"
result: 112 to 113 °C

query: Data request, read-out melting point, for "CN1CCN(Cc2cc(-c3ccc4c(c3)CCO4)nn(Cc3ccc(F)cc3)c2=O)CC1.Cl.Cl"
result: 201 to 204 °C (dec.)

query: Data request, read-out melting point, for "CN1CCN(Cc2cc(-c3ccc4c(c3)CCO4)nn(CC3CC3)c2=O)CC1"
result: 128 to 130 °C
